TEST_SYSTEM: T1, full-length human IL-36R on cells (human, UniProt Q9HB29 20-575)
T1 sequence (looked up): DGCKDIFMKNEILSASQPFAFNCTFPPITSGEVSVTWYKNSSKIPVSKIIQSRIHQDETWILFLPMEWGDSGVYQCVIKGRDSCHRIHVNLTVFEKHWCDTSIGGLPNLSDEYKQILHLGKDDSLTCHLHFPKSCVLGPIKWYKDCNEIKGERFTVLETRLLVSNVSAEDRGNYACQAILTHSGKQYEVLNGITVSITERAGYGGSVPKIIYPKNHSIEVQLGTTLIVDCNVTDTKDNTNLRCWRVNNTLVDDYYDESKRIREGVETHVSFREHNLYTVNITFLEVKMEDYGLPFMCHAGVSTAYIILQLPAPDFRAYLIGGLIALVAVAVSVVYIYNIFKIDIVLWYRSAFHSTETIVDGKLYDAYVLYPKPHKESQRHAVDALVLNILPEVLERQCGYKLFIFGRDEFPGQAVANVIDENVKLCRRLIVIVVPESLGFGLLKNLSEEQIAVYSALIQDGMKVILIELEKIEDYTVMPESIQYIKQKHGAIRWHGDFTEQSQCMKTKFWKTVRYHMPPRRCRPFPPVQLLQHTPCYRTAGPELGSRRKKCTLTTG
TEST_PROTOCOL: cell-based or functional assay
MEASUREMENT_KIND: Max Inhibition (%), NFκB-luciferase, 20 pM hIL-36α
Report the figure in % without appending any unit label.

BINDER: H4H14728P (antibody, human IgG4 S228P, kappa, V domains shown) VH: QVQLQESGPGLVKPSQTLSLTCTVSGGSISSADYYWSWIRQHPGKGLEWIGSIYYTGSTYYNPSLKSRLTISIDTSENQFSLKLTSLTAADTAVYYCASEEANWGSHFDSWGQGTLVTVSS VL: DIQMTQSPSSLSASVGDRVTITCRASQSIDNFLNWYQQKPGKAPKLLIYAASSLQSGVPSRFSGSGSGTDFTLTISSLQPEDFASYYCQHSHSAHPITFGQGTRLEIKR
OUTPUT_UNIT: %
EXPERIMENTAL_VALUE: 97

BINDER: H4H14700P2 (antibody, human IgG4 S228P, kappa, V domains shown) VH: EVQLVESGGGLVQPGRSLRLSCAASGFTFDDYAMHWVRQTPGKGLEWVSVISWNSDVIAYSDSVKGRFTISRDNAKNSLYLQMNSLGTEDTALYYCAKGHNWNFFDYWGQGTLVTVSS VL: EIVLTQSPATLSLSPGERATLSCRASQSVSSYLAWYQQKPGQAPRLLIYNVANRATDIPARFSGSGSGTDFTLTISGLEPEDFAVYFCQQRSNWPLTFGGGTKVEIKR
OUTPUT_UNIT: %
EXPERIMENTAL_VALUE: 101

Q) So what's the measured Max Inhibition (%), NFκB-luciferase, 20 pM hIL-36α for this one? H4H14709P (antibody, human IgG4 S228P, kappa, V domains shown) VH: EVQLVESGGGLVQPGGSLRLSCAASGFTFSDYAMSWVRQAPGKGLEWVSGISGNGGDTYYGDFVKGRFTISRDNSKNTLYLQMNSLRGEDTAAYFCVIDLDYWGQGTLVTVSS VL: DIQMTQSPSTLSASEGDRVTITCRASQSISSWLAWYQQKPGKAPRLLIYKASILGDGVPSRFSGSGSGTEFTLTISSLQPDDFATYYCHQYNSYLWTFGQGTKVEIKR
A) 22

Ref: patent US20200017592A1
